Target: Polyketide synthase Pks13 (Mycobacterium tuberculosis (strain ATCC 25618 / H37Rv))
Sequence (I6X8D2 whole entry): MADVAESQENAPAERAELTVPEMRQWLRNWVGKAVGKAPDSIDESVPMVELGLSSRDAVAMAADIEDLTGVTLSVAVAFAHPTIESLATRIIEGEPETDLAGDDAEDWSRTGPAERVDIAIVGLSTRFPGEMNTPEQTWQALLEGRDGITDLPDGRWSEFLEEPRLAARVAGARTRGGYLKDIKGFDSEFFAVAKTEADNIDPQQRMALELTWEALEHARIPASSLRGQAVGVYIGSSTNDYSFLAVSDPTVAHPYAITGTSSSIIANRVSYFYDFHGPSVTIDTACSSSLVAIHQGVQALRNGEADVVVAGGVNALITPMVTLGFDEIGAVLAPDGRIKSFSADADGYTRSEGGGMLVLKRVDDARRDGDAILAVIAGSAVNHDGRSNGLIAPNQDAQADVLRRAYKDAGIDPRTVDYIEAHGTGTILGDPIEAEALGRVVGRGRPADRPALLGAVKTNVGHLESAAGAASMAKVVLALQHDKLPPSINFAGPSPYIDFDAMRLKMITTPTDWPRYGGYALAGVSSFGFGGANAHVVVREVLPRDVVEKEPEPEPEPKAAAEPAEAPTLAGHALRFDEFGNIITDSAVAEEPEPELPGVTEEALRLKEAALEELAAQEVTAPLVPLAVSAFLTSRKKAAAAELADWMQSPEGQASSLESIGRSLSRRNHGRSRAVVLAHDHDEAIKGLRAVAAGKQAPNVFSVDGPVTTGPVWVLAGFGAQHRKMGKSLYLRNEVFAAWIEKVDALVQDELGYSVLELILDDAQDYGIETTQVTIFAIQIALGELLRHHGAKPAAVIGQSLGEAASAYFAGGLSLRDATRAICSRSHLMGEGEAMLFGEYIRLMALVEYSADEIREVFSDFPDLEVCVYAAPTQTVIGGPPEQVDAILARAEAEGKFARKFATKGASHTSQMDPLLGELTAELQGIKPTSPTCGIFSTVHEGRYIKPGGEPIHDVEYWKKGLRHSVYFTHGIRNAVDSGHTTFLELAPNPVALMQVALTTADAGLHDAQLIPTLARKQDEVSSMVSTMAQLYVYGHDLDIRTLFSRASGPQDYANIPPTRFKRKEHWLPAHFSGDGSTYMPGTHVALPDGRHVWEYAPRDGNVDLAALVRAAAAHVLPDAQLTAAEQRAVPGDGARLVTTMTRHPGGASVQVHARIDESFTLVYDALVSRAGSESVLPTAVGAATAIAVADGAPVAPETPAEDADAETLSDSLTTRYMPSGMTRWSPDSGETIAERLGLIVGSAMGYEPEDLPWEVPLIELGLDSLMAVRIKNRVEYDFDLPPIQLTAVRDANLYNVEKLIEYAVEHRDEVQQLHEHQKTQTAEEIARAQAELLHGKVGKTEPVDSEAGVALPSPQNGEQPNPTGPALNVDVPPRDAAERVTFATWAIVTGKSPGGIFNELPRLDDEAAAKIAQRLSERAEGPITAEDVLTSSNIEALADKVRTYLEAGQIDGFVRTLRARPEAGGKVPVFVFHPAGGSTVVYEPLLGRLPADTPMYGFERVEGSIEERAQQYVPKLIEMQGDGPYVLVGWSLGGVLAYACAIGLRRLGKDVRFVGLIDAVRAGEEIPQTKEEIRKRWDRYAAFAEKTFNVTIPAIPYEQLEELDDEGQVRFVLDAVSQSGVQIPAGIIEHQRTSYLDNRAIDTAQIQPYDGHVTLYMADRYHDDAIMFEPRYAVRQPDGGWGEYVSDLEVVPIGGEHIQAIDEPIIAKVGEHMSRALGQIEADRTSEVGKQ
Assay: Inhibition of Mycobacterium tuberculosis recombinant Pks13 expressed in Escherichia coli BL21 (DE3) cells using 4-methylumbelliferyl heptanoate as substrate incubated for 3 hrs by […] based analysis
Assay readout: IC50 (nM)
Entry rule: numbers only, all in nM.

response.value for "O=c1cc(-c2ccccc2O)oc2ccc(O)c(CN3CCC3)c12" (field: IC50) = 14.3

----------
Assay: Cytotoxicity against African green monkey Vero cells assessed as reduction in cell viability
Type: toxicity, cell-based
Conditions: African green monkey (Chlorocebus sabaeus)
Assay readout: pIC50
In plain terms, pIC50 is the concentration in mol/L turned into minus its base-10 logarithm.

response.value for "COC(=O)c1c(NC(=O)c2c(F)c(F)c(F)c(F)c2F)sc2c1CCCCC2" (field: pIC50) = 4.76
